Below: a set of entries, each annotated with reported IC50.
- System: UniProt Q07343
- Test Context: read-out: PDE4B2 IC50; enzyme assay
Give just the number in pM; leave the unit off.

[O-][S+]1CCc2nc(N3CCc4cc(N5CCCC5)ccc4C3)nc(NC3CCOCC3)c21 (stereo not drawn) [Compound 189]	66
[O-][S+]1CCc2nc(N3CCc4cc(N5C[C@@H]6[C@@H](CO)[C@@H]6C5)ccc4C3)nc(NC3(CO)CCC3)c21 (stereo partly drawn) [Compound 174]	197
[O-][S+]1CCc2nc(N3CCc4cc(N5CCC(C(F)(F)F)C5)ccc4C3)nc(NC3(CO)CCC3)c21 (stereo not drawn) [Compound 156]	1260
[O-][S+]1CCc2nc(N3CCc4cc(N5CCCC5)ccc4C3)nc(Nc3cnn(CCO)c3)c21 (stereo not drawn) [Compound 191]	182
[O-][S+]1CCc2nc(N3CCc4cc(N5CCC6(CC5)COC6)ccc4C3)nc(NC3(CO)CCC3)c21 (stereo not drawn) [Compound 166]	457

Please fill in: IC50 reported for C[C@H]1c2ccc(N3CCCC3)cc2CCN1c1nc2c(c(N[C@@H]3CC[C@H]3O)n1)[S+]([O-])CC2 (stereo partly drawn) [Compound 201] = 194

---

- System: Flpin-293-PDE4B2 cells (Homo sapiens)
- Experiment Notes: cell-based
- Test Context: read-out: Cell Inhibition % @100 nM, 100 nM, Flpin-293-PDE4B2 cells
Below: a set of entries, each annotated with reported inhibition at 0.1 µM.
Give just the number in %; leave the unit off.

Example compounds with recorded inhibition at 0.1 µM:
CN1CCN(c2ccc3c(c2)CCN(c2nc4c(c(NC5(CO)CCC5)n2)[S+]([O-])CC4)C3)C1=O (centres unmarked) [Compound 86]	97.8
[O-][S+]1CCc2nc(N3CCc4cc(N5CCC(C(F)(F)F)C5)ccc4C3)nc(NC3(CO)CCC3)c21 (centres unmarked) [Compound 156]	91.7
[O-][S+]1CCc2nc(N3CCc4cc(-n5cccn5)ccc4C3)nc(NC3(CO)CCC3)c21 (centres unmarked) [Compound 91]	100
O=C(O)Cc1ccc(Nc2nc(N3CCc4cc(Cl)ccc4C3)nc3c2[S@+]([O-])CC3)cc1 [Compound 129]	72.2

With those in mind, consider the next compound.
Item: C[C@H]1c2ccc(N3CCCC3)cc2CCN1c1nc2c(c(Nc3nnn(C)n3)n1)[S+]([O-])CC2 (some centres unmarked) [Compound 213] | System: Flpin-293-PDE4B2 cells (Homo sapiens) | inhibition at 0.1 µM: 89

---

Below: a set of entries, each annotated with reported inhibition at 0.001 µM.
- System: Flpin-293-PDE4B2 cells (Homo sapiens, UniProt Q07343)
- Sequence (Q07343 1-564 isoform Q07343-2): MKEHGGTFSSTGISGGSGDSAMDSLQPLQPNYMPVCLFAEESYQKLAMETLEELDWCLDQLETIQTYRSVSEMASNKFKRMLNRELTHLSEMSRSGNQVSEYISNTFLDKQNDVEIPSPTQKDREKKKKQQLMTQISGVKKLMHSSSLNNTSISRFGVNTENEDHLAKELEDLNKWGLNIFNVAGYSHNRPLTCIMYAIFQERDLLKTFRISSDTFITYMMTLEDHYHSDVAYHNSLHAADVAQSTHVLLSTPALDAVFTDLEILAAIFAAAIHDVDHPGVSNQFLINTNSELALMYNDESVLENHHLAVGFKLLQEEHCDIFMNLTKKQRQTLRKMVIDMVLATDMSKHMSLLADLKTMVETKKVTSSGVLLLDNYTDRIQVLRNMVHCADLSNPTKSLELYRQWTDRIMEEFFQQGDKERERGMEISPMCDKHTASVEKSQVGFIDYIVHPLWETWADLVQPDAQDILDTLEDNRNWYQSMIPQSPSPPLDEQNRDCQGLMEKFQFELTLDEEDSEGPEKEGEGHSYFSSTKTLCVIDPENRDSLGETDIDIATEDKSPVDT
- Experiment Notes: cell-based
- Test Context: read-out: Cell Inhibition % @1 nM, 1 nM, Flpin-293-PDE4B2 cells
Give just the number in %; leave the unit off.

Please fill in: inhibition at 0.001 µM reported for [O-][S+]1CCc2nc(N3CCc4cc(-n5ccnc5)ccc4C3)nc(NC3(CO)CCC3)c21 (stereo not drawn) = 15

Please fill in: inhibition at 0.001 µM reported for [O-][S+]1CCc2nc(N3CCc4cc(Cl)ccc4C3)nc(Nc3ccc(CCO)cc3)c21 (stereo not drawn) = 16.2

Please fill in: inhibition at 0.001 µM reported for C[C@H]1c2ccc(N3CCCC3)cc2CCN1c1nc2c(c(Nc3cnn(C)c3)n1)[S+]([O-])CC2 (stereo partly drawn) = 30.8

Please fill in: inhibition at 0.001 µM reported for COc1ccc2sc3c(c2c1)CCN(c1nc2c(c(NC4(CO)CCC4)n1)[S+]([O-])CC2)C3 (stereo not drawn) = 19.1

Please fill in: inhibition at 0.001 µM reported for [O-][S+]1CCc2nc(N3CCc4cc(Cl)ccc4[C@H]3C3CC3)nc(NC3(CO)CCC3)c21 (stereo partly drawn) = 2.85

---

- System: Flpin-293-PDE4B2 cells (Homo sapiens)
- Experiment Notes: cell-based
- Test Context: read-out: Cell Inhibition % @10 nM, 10 nM, Flpin-293-PDE4B2 cells
Measured Attribute: inhibition at 0.01 µM (%)
Give just the number in %; leave the unit off.

[O-][S+]1CCc2nc(N3CCc4cc(N5CCCC5)ccc4C3)nc(Nc3cnn(C4COC4)c3)c21 (centres unmarked)	60.3
O=S1(=O)C[C@H]2C[C@@H]1CN2c1ccc2c(c1)CCN(c1nc3c(c(NC4(CO)CCC4)n1)[S+]([O-])CC3)C2 (some centres unmarked)	56.7
[O-][S+]1CCc2nc(N3CC[C@@H]4c5ccccc5OC[C@H]4C3)nc(NC3(CO)CCC3)c21 (some centres unmarked)	47.8
C[C@@H]1Cc2cc(Cl)ccc2CN1c1nc2c(c(NC3(CO)CCC3)n1)[S+]([O-])CC2 (some centres unmarked)	10

Please fill in: inhibition at 0.01 µM reported for O=S1(=O)CCC(Nc2nc(N3CCc4cc(N5CCCC5)ccc4C3)nc3c2[S+]([O-])CC3)CC1 (centres unmarked) = 93.8

---

- System: Flpin-293-PDE4B2 cells (Homo sapiens, UniProt Q07343)
- Experiment Notes: cell-based
- Test Context: read-out: Cell Inhibition % @1 nM, 1 nM, Flpin-293-PDE4B2 cells
Assign class by inhibition at 0.001 µM: not lower than 6% means y; lower than 6% means n.

[O-][S+]1CCc2nc(N3CCc4cc(N5C[C@H]6C[C@@H]5CO6)ccc4C3)nc(NC3(CO)CCC3)c21 (stereo partly drawn)	y
[O-][S+]1CCc2nc(N3CCc4cc(N5CC6CC5C6)ccc4C3)nc(NC3(CO)CCC3)c21 (stereo not drawn)	y
[O-][S+]1CCc2nc(N3CCC4=C(COc5ccccc54)C3)nc(NC3(CO)CCC3)c21 (stereo not drawn)	n
[O-][S+]1CCc2nc(N3CCc4cc(N5CC[C@@H](CO)C5)ccc4C3)nc(NC3(CO)CCC3)c21 (stereo partly drawn)	y
[O-][S+]1CCc2nc(N3CCc4cc(N5CCC6(CC5)COC6)ccc4C3)nc(NC3(CO)CCC3)c21 (stereo not drawn)	y
C[C@@H]1Cc2cc(Cl)ccc2CN1c1nc2c(c(NC3(CO)CCC3)n1)[S+]([O-])CC2 (stereo partly drawn)	n
[O-][S+]1CCc2nc(N3CC[C@@H]4c5cccc(Cl)c5OC[C@H]4C3)nc(NC3(CO)CCC3)c21 (stereo partly drawn)	n

Could you now look at the following compound, please?
Please indicate if the recorded inhibition at 0.001 µM for C[C@H]1c2ccc(N3CCCC3)cc2CCN1c1nc2c(c(Nc3cnn(C4CN(C)C4)c3)n1)[S+]([O-])CC2 (stereo partly drawn) meets or exceeds 6%. n

---

- System: Flpin-293-PDE4B2 cells (Homo sapiens, UniProt Q07343)
- Experiment Notes: cell-based
- Test Context: read-out: Cell Inhibition % @1 nM, 1 nM, Flpin-293-PDE4B2 cells
Below: a set of entries, each annotated with reported inhibition at 0.001 µM.
Give just the number in %; leave the unit off.

[O-][S+]1CCc2nc(N3CCc4cc(N5CCCC5)ncc4C3)nc(NC3(CO)CCC3)c21 (centres unmarked) [Compound 183]	12.8
COC[C@@H](CO)Nc1nc(N2CCc3cc(N4CCCC4)ccc3C2)nc2c1[S+]([O-])CC2 (some centres unmarked) [Compound 199]	-0.51
[O-][S+]1CCc2nc(N3CCc4cc(N5CCCC5)ccc4C3)nc(Nc3cn[nH]c3)c21 (centres unmarked) [Compound 194]	4.28
Cn1cnc(-c2ccc3c(c2)CCN(c2nc4c(c(NC5(CO)CCC5)n2)[S+]([O-])CC4)C3)n1 (centres unmarked) [Compound 94]	34.8
C[C@H]1c2ccc(N3CCCC3)cc2CCN1c1nc2c(c(NC3(CO)CC3)n1)[S+]([O-])CC2 (some centres unmarked) [Compound 203]	14.8

Please fill in: inhibition at 0.001 µM reported for COC(=O)N1CC[C@H](Nc2nc(N3CCc4cc(N5CCCC5)ccc4C3)nc3c2[S+]([O-])CC3)C1 (some centres unmarked) [Compound 196] = 23.7

---

- System: Flpin-293-PDE4B2 cells (Homo sapiens, UniProt Q07343)
- Experiment Notes: cell-based
- Test Context: read-out: Cell Inhibition % @1 nM, 1 nM, Flpin-293-PDE4B2 cells
Below: a set of entries, each annotated with reported inhibition at 0.001 µM.
Give just the number in %; leave the unit off.

Example compounds with recorded inhibition at 0.001 µM:
O=S1(=O)CCC(Nc2nc(N3CCc4cc(N5CCCC5)ccc4C3)nc3c2[S+]([O-])CC3)CC1 (stereo not shown)	25.3
[O-][S+]1CCc2nc(N3CC[C@@H]4c5ccc(C(F)(F)F)cc5OC[C@H]4C3)nc(NC3(CO)CCC3)c21 (stereo partly shown)	8.07
[O-][S+]1CCc2nc(N3CCc4cc(N5CC[C@H](O)C5)ccc4C3)nc(NC3(CO)CCC3)c21 (stereo partly shown)	3.77
C[C@H]1CCCN1c1ccc2c(c1)CCN(c1nc3c(c(NC4(CO)CCC4)n1)[S+]([O-])CC3)C2 (stereo partly shown)	19.2
Cn1cc(CNc2nc(N3CCc4cc(Cl)ccc4C3)nc3c2[S+]([O-])CC3)cn1 (stereo not shown)	6.79
Cn1cc(CNc2nc(N3CCc4cc(N5CCCC5)ccc4C3)nc3c2[S+]([O-])CC3)cn1 (stereo not shown)	3.93

Item: COC[C@@H]1CCCN1c1ccc2c(c1)CCN(c1nc3c(c(NC4(CO)CCC4)n1)[S+]([O-])CC3)C2 (stereo partly shown) | System: Flpin-293-PDE4B2 cells (Homo sapiens, UniProt Q07343) | inhibition at 0.001 µM: 8.67
